- targetOrSystem: Phosphodiesterase-6 (Bos taurus, UniProt P11541+P23439)
- Construct: using an enzyme isolated from bovine retinas at Eurofins-Cerep; tissue Eurofins-Cerep; host or cells: bovine retinas
- Sequence (P11541 2-856 limits assumed): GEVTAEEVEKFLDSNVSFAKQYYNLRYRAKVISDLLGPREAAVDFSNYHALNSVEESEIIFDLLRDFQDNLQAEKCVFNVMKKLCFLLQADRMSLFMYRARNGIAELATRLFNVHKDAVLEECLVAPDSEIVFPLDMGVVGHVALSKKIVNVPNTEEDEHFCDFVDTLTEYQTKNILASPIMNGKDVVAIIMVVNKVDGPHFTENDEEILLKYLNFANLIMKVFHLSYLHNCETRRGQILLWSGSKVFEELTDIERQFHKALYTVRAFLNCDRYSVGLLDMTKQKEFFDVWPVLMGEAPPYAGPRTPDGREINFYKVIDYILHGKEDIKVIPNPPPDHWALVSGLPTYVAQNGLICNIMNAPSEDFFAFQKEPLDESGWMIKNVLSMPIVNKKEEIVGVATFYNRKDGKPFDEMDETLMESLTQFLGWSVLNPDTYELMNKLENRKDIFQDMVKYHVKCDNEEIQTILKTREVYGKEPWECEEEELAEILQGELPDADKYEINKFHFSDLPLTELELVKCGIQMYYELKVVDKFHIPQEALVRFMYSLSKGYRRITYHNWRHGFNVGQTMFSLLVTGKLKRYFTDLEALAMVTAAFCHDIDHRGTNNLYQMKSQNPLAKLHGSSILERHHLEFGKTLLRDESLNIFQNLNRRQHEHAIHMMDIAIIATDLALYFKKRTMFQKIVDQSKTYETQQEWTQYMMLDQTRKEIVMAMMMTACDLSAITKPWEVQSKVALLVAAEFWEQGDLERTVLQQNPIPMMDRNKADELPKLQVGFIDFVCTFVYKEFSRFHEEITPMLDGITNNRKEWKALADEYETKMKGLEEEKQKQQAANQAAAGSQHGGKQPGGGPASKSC
- Sequence (P23439 2-850 limits assumed): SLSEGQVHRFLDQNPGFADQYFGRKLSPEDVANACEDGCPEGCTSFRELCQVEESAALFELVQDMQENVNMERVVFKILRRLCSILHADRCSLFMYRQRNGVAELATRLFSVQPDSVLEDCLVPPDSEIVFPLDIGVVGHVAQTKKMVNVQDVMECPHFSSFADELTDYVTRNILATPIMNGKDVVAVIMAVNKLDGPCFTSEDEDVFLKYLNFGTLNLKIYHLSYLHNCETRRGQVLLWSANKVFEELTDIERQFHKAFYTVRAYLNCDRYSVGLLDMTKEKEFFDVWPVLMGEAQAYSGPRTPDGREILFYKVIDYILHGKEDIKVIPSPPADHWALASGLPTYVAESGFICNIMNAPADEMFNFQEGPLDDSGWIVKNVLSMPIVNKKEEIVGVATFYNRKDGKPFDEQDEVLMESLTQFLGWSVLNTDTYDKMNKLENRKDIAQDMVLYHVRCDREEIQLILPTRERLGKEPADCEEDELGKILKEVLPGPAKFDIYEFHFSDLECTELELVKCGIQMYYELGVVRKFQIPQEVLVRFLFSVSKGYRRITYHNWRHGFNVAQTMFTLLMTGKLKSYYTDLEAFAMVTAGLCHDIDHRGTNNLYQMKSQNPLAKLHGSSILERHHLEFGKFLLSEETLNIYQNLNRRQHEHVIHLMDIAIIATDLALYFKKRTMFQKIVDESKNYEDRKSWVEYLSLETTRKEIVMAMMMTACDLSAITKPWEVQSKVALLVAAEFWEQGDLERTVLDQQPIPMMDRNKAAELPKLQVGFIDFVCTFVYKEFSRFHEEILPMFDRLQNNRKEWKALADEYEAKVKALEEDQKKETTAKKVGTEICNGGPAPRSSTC
- assay: PDE6 (non-selective) assay
- Format: biochemical, bovine
- conditionsUsed: read-out: PDE6 IC50
metricName: IC50 (µM)
One number for each entry, in µM.

[ask] Test system Phosphodiesterase-6 (Bos taurus, UniProt P11541+P23439); read-out IC50; what value for COCCN(CCOC)c1nc(N2CCN(C)C(=O)C2)c2nc(N(CCOC)CCOC)nc(N3CCC(OC)CC3)c2n1 [Compound 72] ?
[reply] 3.23
